Entry source: the Immune Epitope Database (IEDB)

target: HLA-A*33:01; test: IEDB peptide-MHC binding, purified MHC/competitive/radioactivity; filed as Kd, often an IC50 or EC50 that approximates it; bounds were set here for any values at or beyond the usual limits of such assays; settings: source organism: Dengue virus 2 Peru/IQT2913/1996
Observation Type: Kd (nM)
Lab book: enter the figure in nM, no units written.

// map TTFITPMLR to recorded Kd (system: HLA-A*33:01)
11.7

----------
target: HLA-B*83:01; test: IEDB peptide-MHC binding, purified MHC/competitive/fluorescence; filed as Kd, often an IC50 or EC50 that approximates it; bounds were set here for any values at or beyond the usual limits of such assays; conditions: source organism: Burkholderia vietnamiensis G4
Observation Type: Kd

Entry WMRWGGWPF : reported Kd = ?
≥ 5 µM

----------
target: HLA-A*11:01; assay: IEDB peptide-MHC binding, purified MHC/direct/fluorescence; filed as Kd, often an IC50 or EC50 that approximates it; bounds were set here for any values at or beyond the usual limits of such assays; conditions: source organism: Salmonella enterica
pKd: −log10 of the molar value.
Observation Type: pKd

Entry AHSKAETEA : reported pKd = ?
≤ 4.70

----------
target: HLA-A*30:01; test: IEDB peptide-MHC binding, purified MHC/competitive/radioactivity; filed as Kd, often an IC50 or EC50 that approximates it; bounds were set here for any values at or beyond the usual limits of such assays; conditions: source organism: Dengue virus 1 Brazil/97-11/1997
Please go through the items and note down their Kd.
Lab book: enter the figure in nM, no units written.

Entry RFLAIPPTA : reported Kd = ?
127

Entry RVSTGSQLA : reported Kd = ?
81.3

----------
molecular target: HLA-A*24:02; experiment: IEDB peptide-MHC binding, purified MHC/competitive/radioactivity; filed as Kd, often an IC50 or EC50 that approximates it; bounds were set here for any values at or beyond the usual limits of such assays; conditions: source organism: Dengue virus 3 Martinique/1243/1999
Please go through the items and note down their pKd.
Scale for pKd: -log10 of concentration given in mol/L; no unit attached.

Entry AWMVHRQWF : reported pKd = ?
7.37

Entry LWMAEIPLQW : reported pKd = ?
7.41

----------
target: HLA-A*23:01; assay: IEDB peptide-MHC binding, purified MHC/competitive/radioactivity; filed as Kd, often an IC50 or EC50 that approximates it; bounds were set here for any values at or beyond the usual limits of such assays; conditions: source organism: Mammarenavirus lassaense
Observation Type: pKd
Scale for pKd: -log10 of concentration given in mol/L; no unit attached.

Entry VDINLIPLI : reported pKd = ?
5.79

----------
Please go through the items and note down their pKd.
molecular target: HLA-B*39:01; experiment: IEDB peptide-MHC binding, purified MHC/competitive/fluorescence; filed as Kd, often an IC50 or EC50 that approximates it; bounds were set here for any values at or beyond the usual limits of such assays; conditions: source organism: Homo sapiens
pKd: −log10 of the molar value.

Entry VLIRRCHYL : reported pKd = ?
≤ 4.70

Entry VSDFRKEFY : reported pKd = ?
≤ 4.70

----------
target: HLA-B*08:01; experiment: IEDB peptide-MHC binding, purified MHC/competitive/fluorescence; filed as Kd, often an IC50 or EC50 that approximates it; bounds were set here for any values at or beyond the usual limits of such assays; details: source organism: Escherichia coli O157:H7 str. EDL933
Observation Type: Kd (nM)
Lab book: enter the figure in nM, no units written.

Entry MQRSGMLSL : reported Kd = ?
197

----------
target: HLA-A*68:02; assay: IEDB peptide-MHC binding, purified MHC/competitive/radioactivity; filed as Kd, often an IC50 or EC50 that approximates it; bounds were set here for any values at or beyond the usual limits of such assays; details: source organism: Dengue virus 2 Jamaica/1409/1983
Please go through the items and note down their pKd.
Scale for pKd: -log10 of concentration given in mol/L; no unit attached.

Entry LTAIANQATV : reported pKd = ?
7.73

Entry LSVSLVLVGV : reported pKd = ?
7.91

Entry MAAILAYTI : reported pKd = ?
8.33

Entry TIAVSMANI : reported pKd = ?
7.47

Entry QVFGAIYGA : reported pKd = ?
8.71

Entry GTFHTMWHV : reported pKd = ?
7.91

Entry STSTWVTYGT : reported pKd = ?
7.14

Entry TAIANQATV : reported pKd = ?
8.00

----------
target: HLA-A*11:01; assay: IEDB peptide-MHC binding, purified MHC/competitive/radioactivity; filed as Kd, often an IC50 or EC50 that approximates it; bounds were set here for any values at or beyond the usual limits of such assays; conditions: source organism: Vaccinia virus WR
Please go through the items and note down their log10 of Kd.
Form field - Quantity: Kd; Unit: nM; Scale: log10

Entry KSMFWDGMDY : reported log10 of Kd = ?
0.24

Entry KAIEKDRLDK : reported log10 of Kd = ?
3.08

Entry NVHEHINDQK : reported log10 of Kd = ?
4.26

Entry ETSPGEIKPK : reported log10 of Kd = ?
3.18

Entry RQILDNAAK : reported log10 of Kd = ?
2.16

Entry VISKIYTLIY : reported log10 of Kd = ?
2.05

Entry KASMLEKYK : reported log10 of Kd = ?
2.04

Entry KVKTELVMDK : reported log10 of Kd = ?
2.61

Entry RLGLVLDDYK : reported log10 of Kd = ?
1.58

Entry KSRRLNLFSK : reported log10 of Kd = ?
3.04

----------
target: HLA-A*02:16; assay: IEDB peptide-MHC binding, purified MHC/direct/fluorescence; filed as Kd, often an IC50 or EC50 that approximates it; bounds were set here for any values at or beyond the usual limits of such assays; conditions: source organism: Orthohantavirus andesense
Observation Type: Kd

Entry LEEDIQHFL : reported Kd = ?
≥ 20 µM

----------
molecular target: HLA-A*01:01; test: IEDB peptide-MHC binding, purified MHC/direct/fluorescence; filed as Kd, often an IC50 or EC50 that approximates it; bounds were set here for any values at or beyond the usual limits of such assays; conditions: source organism: Neisseria gonorrhoeae
pKd: −log10 of the molar value.
Observation Type: pKd

Entry GSDKQVVGQ : reported pKd = ?
≤ 4.70

----------
molecular target: HLA-A*26:01; experiment: IEDB peptide-MHC binding, purified MHC/competitive/fluorescence; filed as Kd, often an IC50 or EC50 that approximates it; bounds were set here for any values at or beyond the usual limits of such assays; conditions: source organism: Cryptosporidium parvum Iowa II
Observation Type: Kd

Entry MSQMPPHPY : reported Kd = ?
≥ 20 µM

----------
target: HLA-A*01:01; assay: IEDB peptide-MHC binding, purified MHC/direct/fluorescence; filed as Kd, often an IC50 or EC50 that approximates it; bounds were set here for any values at or beyond the usual limits of such assays; conditions: source organism: Pseudomonas tolaasii
Observation Type: Kd

Entry AEGTGITHL : reported Kd = ?
≥ 20 µM

----------
target: HLA-B*48:01; test: IEDB peptide-MHC binding, purified MHC/direct/fluorescence; filed as Kd, often an IC50 or EC50 that approximates it; bounds were set here for any values at or beyond the usual limits of such assays; settings: source organism: Yellow fever virus strain Ghana/Asibi/1927
pKd: −log10 of the molar value.
Observation Type: pKd

Entry AIHPFALLL : reported pKd = ?
≤ 4.70

----------
target: HLA-A*02:16; assay: IEDB peptide-MHC binding, purified MHC/direct/fluorescence; filed as Kd, often an IC50 or EC50 that approximates it; bounds were set here for any values at or beyond the usual limits of such assays; conditions: source organism: Rickettsia bellii OSU 85-389
Observation Type: Kd

Entry EDFEIFYNL : reported Kd = ?
≥ 20 µM

----------
molecular target: HLA-A*23:01; experiment: IEDB peptide-MHC binding, purified MHC/competitive/fluorescence; filed as Kd, often an IC50 or EC50 that approximates it; bounds were set here for any values at or beyond the usual limits of such assays; settings: source organism: Campylobacter jejuni subsp. jejuni NCTC 11168 = ATCC 700819
pKd: −log10 of the molar value.
Observation Type: pKd

Entry KGMKIQHFK : reported pKd = ?
≤ 4.70

----------
target: HLA-A*29:02; experiment: IEDB peptide-MHC binding, purified MHC/competitive/radioactivity; filed as Kd, often an IC50 or EC50 that approximates it; bounds were set here for any values at or beyond the usual limits of such assays; conditions: source organism: Lymphocytic choriomeningitis virus (strain Armstrong)
Observation Type: pKd
Scale for pKd: -log10 of concentration given in mol/L; no unit attached.

// map LQFGFGWFSY to recorded pKd (system: HLA-A*29:02)
7.71

----------
Please go through the items and note down their Kd.
biological target: HLA-A*02:01; assay: IEDB peptide-MHC binding, purified MHC/competitive/fluorescence; filed as Kd, often an IC50 or EC50 that approximates it; bounds were set here for any values at or beyond the usual limits of such assays; conditions: source organism: Salmonella enterica subsp. enterica serovar Typhi
Answer format: number, then unit.

Entry MMLSPLVAL : reported Kd = ?
0.2 nM

Entry HVAAFSSLI : reported Kd = ?
61.3 nM
